- TESTED_ON: EBP (Mus musculus)
- Construct: active EBP was obtained from mouse microsomes; from tissue
- Sequence (P70245 whole entry): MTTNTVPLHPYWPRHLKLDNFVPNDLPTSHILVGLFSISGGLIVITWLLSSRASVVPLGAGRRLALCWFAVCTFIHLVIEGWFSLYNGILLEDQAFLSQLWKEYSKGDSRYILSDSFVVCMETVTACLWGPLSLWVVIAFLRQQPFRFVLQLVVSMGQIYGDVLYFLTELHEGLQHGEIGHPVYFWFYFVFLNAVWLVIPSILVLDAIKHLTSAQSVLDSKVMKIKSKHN
- MEASUREMENT_NOTES: EBP enzymatic assay (GC/MS)
- Type: biochemical
- RUN_PARAMETERS: 10 μM, zymostenol 25 μM
ENDPOINT_NAME: inhibition of EBP enzymatic activity

{"COMPOUND": "COc1ccc(S(=O)(=O)N2CCC(N3CCC(C)CC3)CC2)cc1 [TASIN-1, Tasin-1]", "MEAS_VALUE": "clear inhibition"}
{"COMPOUND": "CC/C(=C(\\c1ccccc1)c1ccc(OCCN(C)C)cc1)c1ccccc1 [tamoxifen, Tamoxifen]", "MEAS_VALUE": "clear inhibition"}
{"COMPOUND": "CN1[C@@H]2CC[C@H]1C[C@@H](OC(c1ccccc1)c1ccccc1)C2 [benztropine, Benztropine]", "MEAS_VALUE": "clear inhibition"}

These entries and their values trace back to patent US12403104B2.
